system: Human immunodeficiency virus 1; test: Inhibition of wild-type HIV-1 integrase strand transfer activity assessed as reduction in viral replication in presence of 10% normal human serum
I'd appreciate it if you could label each record using IP and these ranges: low value = under 20 nM, medium value = from 20 nM up to 40 nM, high value = 40 nM and over

Examples with answers:
compound="O=C1NC2(CCc3ccccc32)n2c1c1c(c(O)c2=O)C(=O)N(Cc2ccc(F)c(Cl)c2)CC1 (racemic)" category="medium value"
compound="O=C(CN1C(=O)c2c3c(c(O)c(=O)n2C12CCC1CC12)C(=O)N(Cc1ccc(F)c(Cl)c1)CC3)N1CCOCC1 (stereo not given)" category="low value"
compound="O=C1c2c(c3n(c(=O)c2O)C2(CCC4CC42)N(CCO)C3=O)CCN1Cc1ccc(F)c(Cl)c1 (stereo not given)" category="high value"
compound=N#Cc1cccc2c1[C@@]1(CC2)NC(=O)c2c3c(c(O)c(=O)n21)C(=O)N(Cc1ccc(F)c(Cl)c1)CC3 category="high value"
compound="CO[C@H](C)CN1C(=O)c2c3c(c(O)c(=O)n2C12CCC1CC12)C(=O)N(Cc1ccc(F)c(Cl)c1)CC3 (stereo not given in full)" category="medium value"

With those in mind, consider the next compound.
Input COCC(O)CN1C(=O)c2c3c(c(O)c(=O)n2C12CCC1CC12)C(=O)N(Cc1ccc(F)c(Cl)c1)CC3 (stereo not given) ; output its category
low value

---

assay: Aqueous solubility of the compound at pH 7; format: physicochemical
PROPERTY_NAME: solubility (µM)
Numbers only, in µM.

Answer for every listed entry: what is its solubility? The entries follow.
1. CN1CC(=O)N(CCN2C(=O)c3c4c(c(O)c(=O)n3C23CCC2CC23)C(=O)N(Cc2ccc(F)c(Cl)c2)CC4)C1=O (configuration not stated)
2. O=C(CN1C(=O)c2c3c(c(O)c(=O)n2C12CCC1CC12)C(=O)N(Cc1ccc(F)c(Cl)c1)CC3)N1CCOCC1 (configuration not stated)
3. CO[C@@H](C)CN1C(=O)c2c3c(c(O)c(=O)n2C12CCC1CC12)C(=O)N(Cc1ccc(F)c(Cl)c1)CC3 (some centres not stated)

[56, 67, 23]

---

assay: Aqueous solubility of the compound at pH 2; type: physicochemical
PROPERTY_NAME: solubility

Worked examples, 5 molecules total:
molecule=O=C1NC2(CCCC2)n2c1c1c(c(O)c2=O)C(=O)N(Cc2ccc(F)c(Cl)c2)CC1 property_name=solubility recorded_measurement="< 5 µM"
molecule="Cc1ccc2c(c1)CCC21NC(=O)c2c3c(c(O)c(=O)n21)C(=O)N(Cc1ccc(F)c(Cl)c1)CC3 (racemic)" property_name=solubility recorded_measurement="< 3 µM"
molecule=O=C1N[C@]2(CC[C@H]3C[C@H]32)n2c1c1c(c(O)c2=O)C(=O)N(Cc2ccc(F)c(Cl)c2)CC1 property_name=solubility recorded_measurement="30 to 50 µM"
molecule="Cc1cccc2c1C1(CC2)NC(=O)c2c3c(c(O)c(=O)n21)C(=O)N(Cc1ccc(F)c(Cl)c1)CC3 (racemic)" property_name=solubility recorded_measurement="< 2 µM"
molecule="O=C1c2c(c3n(c(=O)c2O)C2(CCC4CC42)N(CCN2C(=O)c4ccccc4C2=O)C3=O)CCN1Cc1ccc(F)c(Cl)c1 (stereo unspecified)" property_name=solubility recorded_measurement="< 2 µM"

Provide solubility for all items below, preserving their order.
1. N#Cc1cccc2c1[C@@]1(CC2)NC(=O)c2c3c(c(O)c(=O)n21)C(=O)N(Cc1ccc(F)c(Cl)c1)CC3
2. Cc1cccc2c1CCC21NC(=O)c2c3c(c(O)c(=O)n21)C(=O)N(Cc1ccc(F)c(Cl)c1)CC3 (racemic)

10 µM
< 2 µM
